# MEASUREMENT TARGET: OXA-11 (Pseudomonas aeruginosa, UniProt Q06778)
Examples of compounds with documented IC50 follow.
REPORTED ENDPOINT: IC50 (nM)

COMPOUND | REPORTED ENDPOINT | QUANTITATIVE READOUT
O=C1N2CC(n3nccn3)=CC(C2)N1OS(=O)(=O)O (stereo not shown) | IC50 | 85
NC(=O)c1cnn(C2=CC3CN(C2)C(=O)N3OS(=O)(=O)[O-])c1.[Na+] (stereo not shown) | IC50 | 93
O=C(NC1CCNCC1)c1ccn(C2=CC3CN(C2)C(=O)N3OS(=O)(=O)O)n1 (stereo not shown) | IC50 | 27
CC(=O)c1ccn(C2=CC3CN(C2)C(=O)N3OS(=O)(=O)[O-])n1.[Na+] (stereo not shown) [Example 28, sulfate] | IC50 | 29

----------
# MEASUREMENT TARGET: SHV-1 (Klebsiella pneumoniae, UniProt P0AD64)
# Sequence (P0AD64 22-286): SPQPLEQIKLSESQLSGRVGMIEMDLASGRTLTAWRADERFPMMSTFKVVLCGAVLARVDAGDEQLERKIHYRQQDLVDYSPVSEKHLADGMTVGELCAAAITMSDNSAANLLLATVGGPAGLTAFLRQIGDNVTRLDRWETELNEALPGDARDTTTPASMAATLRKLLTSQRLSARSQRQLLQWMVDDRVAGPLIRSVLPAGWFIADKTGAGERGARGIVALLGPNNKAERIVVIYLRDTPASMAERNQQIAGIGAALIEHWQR
# STUDY CONDITIONS: read-out: IC50 β-lactamase SHV-1; class (A); nitrocefin 200 μM, 30-min pre-incubation, enzyme 0.075 nM
pIC50: −log10 of the molar value.
Quick reference for pIC50 among some molecules
REPORTED ENDPOINT: pIC50

MOLECULE | QUANTITATIVE READOUT
C/C(=N/O)c1cnn(C2=CC3CN(C2)C(=O)N3OS(=O)(=O)[O-])c1.[Na+] (stereo not drawn) | 8.89
CC(=O)Nc1ccn(C2=CC3CN(C2)C(=O)N3OS(=O)(=O)O)n1.CCN(CC)CC (stereo not drawn) | 8.77
CN(C)C.NC(=O)CCc1nccn1C1=CC2CN(C1)C(=O)N2OS(=O)(=O)O (stereo not drawn) | 8.01
NCCNC(=O)Cc1ccn(C2=CC3CN(C2)C(=O)N3OS(=O)(=O)[O-])n1.O=C(O)C(F)(F)F.[Na+] (stereo not drawn) | 8.28
O=C1N2CC(n3ccc(-c4ncco4)n3)=CC(C2)N1OS(=O)(=O)[O-].[Na+] (stereo not drawn) | 8.82
O=C(O)C(F)(F)F.O=C1N2CC(n3ccc(CNc4nccs4)n3)=CC(C2)N1OS(=O)(=O)[O-].[Na+] (stereo not drawn) | 8.49
NCc1cnn(C2=CC3CN(C2)C(=O)N3OS(=O)(=O)[O-])c1.O=C(O)C(F)(F)F.[Na+] (stereo not drawn) | 8.19
O=C1N2CC(n3cc(N4CCOCC4)cn3)=CC(C2)N1OS(=O)(=O)[O-].[Na+] (stereo not drawn) | 8.29
NC(=O)c1nn(C2=CC3CN(C2)C(=O)N3OS(=O)(=O)[O-])cc1F.[Na+] (stereo not drawn) | 8.92
CN(C)Cc1cn(C2=CC3CN(C2)C(=O)N3OS(=O)(=O)[O-])nn1.[Na+] (stereo not drawn) | 8.60
O=C1N2CC(n3cc(S(=O)(=O)NCCO)cn3)=CC(C2)N1OS(=O)(=O)[O-].[Na+] (stereo not drawn) | 8.66
NC(=O)c1cn(C2=CC3CN(C2)C(=O)N3OS(=O)(=O)[O-])nn1.[Na+] (stereo not drawn) | 9.00
O=C1N2CC(n3ccnn3)=CC(C2)N1OS(=O)(=O)[O-].[Na+] (stereo not drawn) | 8.40
NC(=O)c1cc(F)n(C2=CC3CN(C2)C(=O)N3OS(=O)(=O)[O-])n1.[Na+] (stereo not drawn) | 8.57
NCCONC(=O)c1cnn(C2=CC3CN(C2)C(=O)N3OS(=O)(=O)[O-])c1.O=C(O)C(F)(F)F.[Na+] (stereo not drawn) | 8.62

----------
Recorded measurements of MIC, one per entry
# System: E. cloacae UFR70
# ASSAY PROCEDURE: MIC of compound alone, broth microdilution
# Format: cell-based
# STUDY CONDITIONS: Enterobacter cloacae; strain UFR70: E. cloacae; TEM-1, CTX-M-15, CMY-2, OXA-1, Porin loss; read-out: MIC compounds of the invention alone

COMPOUND | MIC, µg/mL
O=C1N2CC(n3ccsc3=O)=CC(C2)N1OS(=O)(=O)[O-].[Na+] (stereo not shown) [Example 1] | 4
O=C1N2CC(n3nccn3)=CC(C2)N1OS(=O)(=O)O (stereo not shown) [Example 3] | 4
O=C1N2CC(n3ccnn3)=C[C@H](C2)N1OS(=O)(=O)O [Example 6] | 0.5
O=C1N2CC(n3cncn3)=CC(C2)N1OS(=O)(=O)[O-].[Na+] (stereo not shown) [Example 5] | 2

----------
# Test system: E. coli 190317
# ASSAY PROCEDURE: MIC of compound alone, broth microdilution
# Type: cell-based
# STUDY CONDITIONS: Escherichia coli; strain 190317; compound alone; read-out: MIC compounds of the invention alone
compounds and their reported MIC

COMPOUND | MEASUREMENT TARGET | INEQUALITY SIGN | MIC, µg/mL
O=C1N2CC(n3ccc(CO)n3)=CC(C2)N1OS(=O)(=O)O (centres unmarked) | E. coli 190317 | = | 1
CC(=NOCCN)c1ccn(C2=CC3CN(C2)C(=O)N3OS(=O)(=O)O)n1 (mixture of isomers) | E. coli 190317 | = | 8
NC(=O)c1cnn(C2=CC3CN(C2)C(=O)N3OS(=O)(=O)[O-])c1.[Na+] (centres unmarked) | E. coli 190317 | = | 16
N#Cc1cnn(C2=CC3CN(C2)C(=O)N3OS(=O)(=O)[O-])c1.[Na+] (centres unmarked) | E. coli 190317 | = | 8
O=C1N2CC(n3cc(C(F)(F)F)cn3)=CC(C2)N1OS(=O)(=O)[O-].[Na+] (centres unmarked) | E. coli 190317 | > | 32
O=C1N2CC(n3ccnc3CO)=CC(C2)N1OS(=O)(=O)[O-].[Na+] (centres unmarked) | E. coli 190317 | = | 32
O=C1N2CC(n3cc(CO)nn3)=CC(C2)N1OS(=O)(=O)O (centres unmarked) | E. coli 190317 | = | 2
CNCc1cn(C2=CC3CN(C2)C(=O)N3OS(=O)(=O)O)nn1 (centres unmarked) | E. coli 190317 | = | 0.5

----------
Listed here: items and their measured IC50.
# MEASUREMENT TARGET: UniProt:P05193
# Sequence (P05193 21-381 limits assumed): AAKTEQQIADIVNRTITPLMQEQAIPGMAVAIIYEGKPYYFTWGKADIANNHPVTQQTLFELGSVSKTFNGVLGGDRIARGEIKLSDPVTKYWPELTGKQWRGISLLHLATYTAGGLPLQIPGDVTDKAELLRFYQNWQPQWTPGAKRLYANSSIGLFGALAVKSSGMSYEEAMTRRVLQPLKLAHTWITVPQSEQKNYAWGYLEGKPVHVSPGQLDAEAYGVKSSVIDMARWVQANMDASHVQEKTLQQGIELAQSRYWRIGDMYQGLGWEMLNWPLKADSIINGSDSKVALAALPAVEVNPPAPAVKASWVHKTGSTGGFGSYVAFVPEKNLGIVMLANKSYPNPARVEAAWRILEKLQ
# STUDY CONDITIONS: read-out: IC50 β-lactamase CMY-37; class (C); nitrocefin 200 μM, 30-min pre-incubation, enzyme 0.2 nM

COMPOUND | IC50
CNCc1cn(C2=CC3CN(C2)C(=O)N3OS(=O)(=O)O)nn1 (centres unmarked) | 68 nM
NCc1cn(C2=CC3CN(C2)C(=O)N3OS(=O)(=O)[O-])nn1.O=C(O)C(F)(F)F.[Na+] (centres unmarked) | 31 nM
NCCONC(=O)c1cn(C2=CC3CN(C2)C(=O)N3OS(=O)(=O)O)nn1 (centres unmarked) | 55 nM
NCCNC(=O)c1cnn(C2=CC3CN(C2)C(=O)N3OS(=O)(=O)O)c1 (centres unmarked) | 38 nM
CC(=NOCCN)c1ccn(C2=CC3CN(C2)C(=O)N3OS(=O)(=O)O)n1 (mixture of isomers) | 35 nM
NCc1ccn(C2=CC3CN(C2)C(=O)N3OS(=O)(=O)[O-])n1.O=C(O)C(F)(F)F.[Na+] (centres unmarked) | 150 nM
O=C1N2CC(n3cc(N4CCNCC4)cn3)=CC(C2)N1OS(=O)(=O)O (centres unmarked) | 59 nM
CN(C)C.NC(=O)CCc1nccn1C1=CC2CN(C1)C(=O)N2OS(=O)(=O)O (centres unmarked) | 86 nM

----------
# MEASUREMENT TARGET: OXA-48 (Klebsiella pneumoniae, UniProt Q6XEC0)
# Sequence (Q6XEC0 23-265, looked up, species assumed): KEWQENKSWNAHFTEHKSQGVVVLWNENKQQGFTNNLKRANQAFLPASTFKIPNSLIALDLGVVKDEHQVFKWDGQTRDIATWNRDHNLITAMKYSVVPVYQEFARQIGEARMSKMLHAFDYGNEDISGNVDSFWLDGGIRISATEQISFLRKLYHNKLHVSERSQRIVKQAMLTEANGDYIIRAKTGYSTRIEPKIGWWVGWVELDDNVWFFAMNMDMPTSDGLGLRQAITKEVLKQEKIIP
List of log10 of IC50 values.
REPORTED ENDPOINT: log10 of IC50 (log10 of the value in nM)

MOLECULE | MEASUREMENT TARGET | QUANTITATIVE READOUT
Nc1ncc(C(=O)Nc2ccn(C3=CC4CN(C3)C(=O)N4OS(=O)(=O)[O-])n2)s1.[Na+] (stereo not drawn) [Example 13] | OXA-48 (Klebsiella pneumoniae, UniProt Q6XEC0) | 0.28
NCCc1ccn(C2=CC3CN(C2)C(=O)N3OS(=O)(=O)O)n1 (stereo not drawn) [Example 10] | OXA-48 (Klebsiella pneumoniae, UniProt Q6XEC0) | 1.15
O=C1N2CC(n3cncn3)=CC(C2)N1OS(=O)(=O)[O-].[Na+] (stereo not drawn) [Example 5] | OXA-48 (Klebsiella pneumoniae, UniProt Q6XEC0) | -0.35
O=C1N2CC(n3ccc(CO)n3)=CC(C2)N1OS(=O)(=O)O (stereo not drawn) [Example 12] | OXA-48 (Klebsiella pneumoniae, UniProt Q6XEC0) | 1.08
O=C1N2CC(n3cc(CO)cn3)=CC(C2)N1OS(=O)(=O)[O-].[Na+] (stereo not drawn) [Example 71] | OXA-48 (Klebsiella pneumoniae, UniProt Q6XEC0) | 1.08
NCCc1cnn(C2=CC3CN(C2)C(=O)N3OS(=O)(=O)O)c1 (stereo not drawn) [Example 41] | OXA-48 (Klebsiella pneumoniae, UniProt Q6XEC0) | 0.95
O=C1N2CC(n3nccn3)=CC(C2)N1OS(=O)(=O)O (stereo not drawn) [Example 3] | OXA-48 (Klebsiella pneumoniae, UniProt Q6XEC0) | 0.20
O=C(Nc1ncco1)c1ccn(C2=CC3CN(C2)C(=O)N3OS(=O)(=O)[O-])n1.[Na+] (stereo not drawn) [Example 37] | OXA-48 (Klebsiella pneumoniae, UniProt Q6XEC0) | 0.40
O=C1N2CC(n3ccc(F)n3)=CC(C2)N1OS(=O)(=O)[O-].[Na+] (stereo not drawn) [Example 18] | OXA-48 (Klebsiella pneumoniae, UniProt Q6XEC0) | 0.91
O=C1N2CC(n3cc(F)cn3)=CC(C2)N1OS(=O)(=O)[O-].[Na+] (stereo not drawn) [Example 14, sulfate] | OXA-48 (Klebsiella pneumoniae, UniProt Q6XEC0) | 0.93
O=C1N2CC(n3nccc3CCO)=CC(C2)N1OS(=O)(=O)[O-].[Na+] (stereo not drawn) [Example 68] | OXA-48 (Klebsiella pneumoniae, UniProt Q6XEC0) | 1.69
O=C(c1ccn(C2=CC3CN(C2)C(=O)N3OS(=O)(=O)[O-])n1)N1CCOCC1.[Na+] (stereo not drawn) [Example 31, sulfate] | OXA-48 (Klebsiella pneumoniae, UniProt Q6XEC0) | 0.48
[2H]c1nn(C2=CC3CN(C2)C(=O)N3OS(=O)(=O)[O-])c([2H])c1[2H].[Na+] (stereo not drawn) [Example 43] | OXA-48 (Klebsiella pneumoniae, UniProt Q6XEC0) | 0.78
N#Cc1cnn(C2=CC3CN(C2)C(=O)N3OS(=O)(=O)[O-])c1.[Na+] (stereo not drawn) [Example 8] | OXA-48 (Klebsiella pneumoniae, UniProt Q6XEC0) | 0.54
CC(=O)c1cnn(C2=CC3CN(C2)C(=O)N3OS(=O)(=O)[O-])c1.[Na+] (stereo not drawn) [Example 40] | OXA-48 (Klebsiella pneumoniae, UniProt Q6XEC0) | 0.80
O=C(Nc1ccn(C2=CC3CN(C2)C(=O)N3OS(=O)(=O)[O-])n1)c1nccs1.[Na+] (stereo not drawn) [Example 34] | OXA-48 (Klebsiella pneumoniae, UniProt Q6XEC0) | 0.97
CC(=NOCCN)c1ccn(C2=CC3CN(C2)C(=O)N3OS(=O)(=O)O)n1 (mixture of isomers) [Example 29] | OXA-48 (Klebsiella pneumoniae, UniProt Q6XEC0) | 0.48
O=C(CO)Nc1ccn(C2=CC3CN(C2)C(=O)N3OS(=O)(=O)[O-])n1.[Na+] (stereo not drawn) [Example 50] | OXA-48 (Klebsiella pneumoniae, UniProt Q6XEC0) | 0.76
O=C(Nc1ncns1)c1ccn(C2=CC3CN(C2)C(=O)N3OS(=O)(=O)O)n1 (stereo not drawn) [Example 79] | OXA-48 (Klebsiella pneumoniae, UniProt Q6XEC0) | 0.67
NCCONC(=O)c1ccn(C2=CC3CN(C2)C(=O)N3OS(=O)(=O)O)n1 (stereo not drawn) [Example 46] | OXA-48 (Klebsiella pneumoniae, UniProt Q6XEC0) | 0.59
O=C(Nc1ccn(C2=CC3CN(C2)C(=O)N3OS(=O)(=O)O)n1)c1cncs1 (stereo not drawn) [Example 77] | OXA-48 (Klebsiella pneumoniae, UniProt Q6XEC0) | 0.89
NC(=O)CNCc1cn(C2=CC3CN(C2)C(=O)N3OS(=O)(=O)O)nn1 (stereo not drawn) [Example 66] | OXA-48 (Klebsiella pneumoniae, UniProt Q6XEC0) | -0.19
O=C(CCO)Nc1ccn(C2=CC3CN(C2)C(=O)N3OS(=O)(=O)[O-])n1.[Na+] (stereo not drawn) [Example 51] | OXA-48 (Klebsiella pneumoniae, UniProt Q6XEC0) | 0.58
O=C1N2CC(n3ccsc3=O)=CC(C2)N1OS(=O)(=O)[O-].[Na+] (stereo not drawn) [Example 1] | OXA-48 (Klebsiella pneumoniae, UniProt Q6XEC0) | 0.28
O=C(Nc1ccccn1)c1ccn(C2=CC3CN(C2)C(=O)N3OS(=O)(=O)[O-])n1.[Na+] (stereo not drawn) [Example 80] | OXA-48 (Klebsiella pneumoniae, UniProt Q6XEC0) | -0.07
O=C1N2CC(n3cc(C(F)(F)F)cn3)=CC(C2)N1OS(=O)(=O)[O-].[Na+] (stereo not drawn) [Example 22] | OXA-48 (Klebsiella pneumoniae, UniProt Q6XEC0) | 0.66
O=C(NOCCO)c1ccn(C2=CC3CN(C2)C(=O)N3OS(=O)(=O)[O-])n1.[Na+] (stereo not drawn) [Example 47] | OXA-48 (Klebsiella pneumoniae, UniProt Q6XEC0) | 0.83
O=C(N[C@@H]1CCNC1)c1ccn(C2=CC3CN(C2)C(=O)N3OS(=O)(=O)O)n1 (stereo partly drawn) [Example 83] | OXA-48 (Klebsiella pneumoniae, UniProt Q6XEC0) | 0.51
CNCc1cn(C2=CC3CN(C2)C(=O)N3OS(=O)(=O)O)nn1 (stereo not drawn) [Example 60] | OXA-48 (Klebsiella pneumoniae, UniProt Q6XEC0) | 0.08
NC(=O)c1cnn(C2=CC3CN(C2)C(=O)N3OS(=O)(=O)[O-])c1.[Na+] (stereo not drawn) [Example 7] | OXA-48 (Klebsiella pneumoniae, UniProt Q6XEC0) | 0.89
COc1cnn(C2=CC3CN(C2)C(=O)N3OS(=O)(=O)[O-])c1.[Na+] (stereo not drawn) [Example 9] | OXA-48 (Klebsiella pneumoniae, UniProt Q6XEC0) | 0.85
O=C(Nc1cc[nH]n1)c1ccn(C2=CC3CN(C2)C(=O)N3OS(=O)(=O)[O-])n1.[Na+] (stereo not drawn) [Example 85] | OXA-48 (Klebsiella pneumoniae, UniProt Q6XEC0) | 0.23
O=C(NCCN1CCOCC1)c1ccn(C2=CC3CN(C2)C(=O)N3OS(=O)(=O)O)n1 (stereo not drawn) [Example 72] | OXA-48 (Klebsiella pneumoniae, UniProt Q6XEC0) | 0.40
